Tested on: CP269
runDescription: qHTS profiling for inhibitors of Plasmodium falciparum proliferation (AID 504749); note: nearly all actives have a fitted effect of over 60% in size
testConditions: P. falciparum in erythrocytes, SYBR Green DNA, 72 h; series mostly up to 28.7 µM
Results filed as inconclusive are left out. The source made the active and inactive calls. Calls come from the whole dose curve; as a rule, active = well fitted inhibition curve with a large enough effect; inconclusive = small, poorly fitted or top-dose-only effect; inactive = flat fitted curve, though single readings scatter.

compound: CN1CCN(C2Cc3ccccc3Sc3ccc(Cl)cc32)CC1 (configuration not stated)
outcome: inactive
//
compound: Nc1ncnc2c1ncn2[C@@H]1O[C@H](CO)[C@@H](O)[C@H]1O
outcome: inactive
//
compound: C=Cc1c(C)c2cc3[nH]c(cc4nc(cc5nc(cc1[nH]2)C(C)=C5CCC(=O)O)C(CCC(=O)O)=C4C)c(C)c3C=C
outcome: inactive
//
compound: Cc1c(Cl)cccc1Nc1ccccc1C(=O)O
outcome: inactive
//
compound: O=C1c2c(O)cccc2Cc2cccc(O)c21
outcome: inactive
//
compound: O=c1[nH]c(=O)c2[nH]c(=O)[nH]c2[nH]1
outcome: inactive
//
compound: CC(CN1c2ccccc2Sc2ccccc21)N(C)C (configuration not stated)
outcome: inactive
//
compound: NCC(=O)CCC(=O)O
outcome: inactive
//
compound: O=Cc1ccccc1C=O
outcome: inactive
//
compound: CN1CCC[C@@H]1Cc1c[nH]c2ccc(CCS(=O)(=O)c3ccccc3)cc12
outcome: inactive
//
compound: NC(=O)NNc1ccccc1
outcome: inactive
//
compound: c1ccc(CN(CC2=NCCN2)c2ccccc2)cc1
outcome: inactive

---

runDescription: qHTS of pediatric cancer cell lines to identify multiple opportunities for drug repurposing: Primary screen for SJ-GBM2 cells (AID 1347091); note: potency is the fitted concentration of half-maximal effect
testConditions: SJ-GBM2 viability, CellTiter-Glo luminescence, 48 h; series mostly up to 46 µM
Records with an inconclusive call do not appear. The source made the active and inactive calls. Calls come from the whole dose curve; as a rule, active = well fitted cell-killing curve with a large enough effect; inconclusive = small, poorly fitted or top-dose-only effect; inactive = no such curve, though single readings can be large or run the other way.

compound: O=c1cc(CO)occ1O
Potency: inactive

compound: NC(=O)NNc1ccccc1
Potency: inactive

compound: CS(=O)(=O)c1ccc([C@@H](O)[C@@H](CF)NC(=O)C(Cl)Cl)cc1
Potency: inactive

compound: CCN(CC)CCNC(=O)c1c(C)[nH]c(/C=C2\C(=O)Nc3ccc(F)cc32)c1C
Potency: 11.9 µM (active)

compound: NS(=O)(=O)c1cc2c(cc1Cl)NC(CSCc1ccccc1)=NS2(=O)=O
Potency: inactive

compound: CNCC(O)c1ccc(O)c(O)c1 (stereo unspecified)
Potency: inactive

---

System: P93_24
runDescription: qHTS profiling for inhibitors of Plasmodium falciparum proliferation (AID 504749); note: nearly all actives have a fitted effect of over 60% in size
testConditions: P. falciparum in erythrocytes, SYBR Green DNA, 72 h; series mostly up to 28.7 µM
Inconclusive results are not listed. The source made the active and inactive calls. Calls come from the whole dose curve; as a rule, active = well fitted inhibition curve with a large enough effect; inconclusive = small, poorly fitted or top-dose-only effect; inactive = flat fitted curve, though single readings scatter.
Possible outcomes: label 1 for active, label 0 for inactive

molecule: O=c1cc[nH]c(=O)[nH]1
targetSystem: P93_24
discreteLabel: label 0

molecule: CCCOC(=O)c1ccccc1
targetSystem: P93_24
discreteLabel: label 0

molecule: CC(O)CN(CCN(CC(C)O)CC(C)O)CC(C)O (stereo not drawn)
targetSystem: P93_24
discreteLabel: label 0

molecule: C[C@@H]1CN(c2c(F)c(F)c3c(=O)c(C(=O)O)cn(C4CC4)c3c2F)C[C@H](C)N1
targetSystem: P93_24
discreteLabel: label 0

molecule: OCCN1CCN(CCCN2c3ccccc3Sc3ccc(Cl)cc32)CC1
targetSystem: P93_24
discreteLabel: label 1

molecule: Cc1cccc(C)c1NC(=O)CN(CC(=O)O)CC(=O)O
targetSystem: P93_24
discreteLabel: label 0

molecule: CCC(=O)Nc1ccc(O)cc1
targetSystem: P93_24
discreteLabel: label 0

molecule: CC1=C(CC(=O)O)c2cc(F)ccc2/C1=C\c1ccc(S(C)=O)cc1 (stereo not drawn)
targetSystem: P93_24
discreteLabel: label 0

molecule: O=C(Oc1ccccc1C(=O)O)c1ccccc1O
targetSystem: P93_24
discreteLabel: label 0

molecule: CCOC(=O)c1ccc(O)cc1
targetSystem: P93_24
discreteLabel: label 0

molecule: O=C(CCCN1CCN(c2ccccn2)CC1)c1ccc(F)cc1
targetSystem: P93_24
discreteLabel: label 0

molecule: CC12CCC(CC1)C(C)(C)O2
targetSystem: P93_24
discreteLabel: label 0

molecule: CC(C)(C)C(=O)C(Oc1ccc(Cl)cc1)n1ccnc1 (stereo not drawn)
targetSystem: P93_24
discreteLabel: label 1

---

System: CP237
runDescription: qHTS profiling for inhibitors of Plasmodium falciparum proliferation (AID 504749); note: nearly all actives have a fitted effect of over 60% in size
testConditions: P. falciparum in erythrocytes, SYBR Green DNA, 72 h; series mostly up to 28.7 µM
Procedure: NIH National Institute of Allergy and Infectious Diseases [NIAID] NIH Chemical Genomics Center [NCGC] […] Because mature erythrocytes lack DNA, only Plasmodium-derived DNA is detected. NCGC Assay Protocol Summary: The SYBR Green viability assay was adapted from a method described previously (Plouffe et al., 2008). […] The following morning, fluorescence intensity at 485(14) nm excitation and 535(25) nm emission wavelengths was measured on an EnVision (Perkin Elmer) plate reader. […]
Results filed as inconclusive are left out. Calls of active or inactive are those of the source. The call rests on the fitted dose curve; in most records, active means well fitted inhibition curve with a large enough effect; inconclusive means small, poorly fitted or top-dose-only effect; inactive means flat fitted curve, though single readings scatter.
Labels: active, inactive

compound: O=C1NC(=O)[C@@]2(CCOc3ccc(F)cc32)N1
discreteLabel: inactive
--
compound: CNC(=O)Oc1ccc2c(c1)[C@]1(C)CCN(C)[C@@H]1N2C
discreteLabel: active
--
compound: CC(O)COc1ccccc1 (stereo unspecified)
discreteLabel: inactive
--
compound: CCCCCCCCCCCCOS(=O)(=O)O
discreteLabel: inactive
--
compound: C=Cc1c(C)c2cc3[nH]c(cc4nc(cc5nc(cc1[nH]2)C(C)=C5CCC(=O)O)C(CCC(=O)O)=C4C)c(C)c3C=C
discreteLabel: inactive
--
compound: Cc1c(Cl)cccc1Nc1ccccc1C(=O)O
discreteLabel: inactive

---

System: 7G8
runDescription: qHTS profiling for inhibitors of Plasmodium falciparum proliferation (AID 504749); note: nearly all actives have a fitted effect of over 60% in size
testConditions: P. falciparum in erythrocytes, SYBR Green DNA, 72 h; series mostly up to 28.7 µM
Inconclusive results are not listed. The source made the active and inactive calls. The call rests on the fitted dose curve; in most records, active means well fitted inhibition curve with a large enough effect; inconclusive means small, poorly fitted or top-dose-only effect; inactive means flat fitted curve, though single readings scatter.
Outcome codes: class 1 (active), class 0 (inactive)

compound: O=C(O)[C@@H]1CSCN1
discreteLabel: class 0
//
compound: Cc1cc(N)c2ccccc2[n+]1CCCCCCCCCC[n+]1c(C)cc(N)c2ccccc21
discreteLabel: class 1
//
compound: CC(O)CN(CCN(CC(C)O)CC(C)O)CC(C)O (stereo unspecified)
discreteLabel: class 0
//
compound: CSc1ccc2c(c1)N(CCC1CCCCN1C)c1ccccc1S2 (stereo unspecified)
discreteLabel: class 1
//
compound: OCC(O)CN1CCN(c2ccccc2)CC1 (stereo unspecified)
discreteLabel: class 0
//
compound: Cc1ccc2nc(N)[nH]c(=O)c2c1Sc1ccncc1
discreteLabel: class 1

---

Test system: CP217
runDescription: qHTS profiling for inhibitors of Plasmodium falciparum proliferation (AID 504749); note: nearly all actives have a fitted effect of over 60% in size
testConditions: P. falciparum in erythrocytes, SYBR Green DNA, 72 h; series mostly up to 28.7 µM
Experimental: NIH National Institute of Allergy and Infectious Diseases [NIAID] NIH Chemical Genomics Center [NCGC] […] Because mature erythrocytes lack DNA, only Plasmodium-derived DNA is detected. NCGC Assay Protocol Summary: The SYBR Green viability assay was adapted from a method described previously (Plouffe et al., 2008). […] The following morning, fluorescence intensity at 485(14) nm excitation and 535(25) nm emission wavelengths was measured on an EnVision (Perkin Elmer) plate reader. […]
Records with an inconclusive call do not appear. Active and inactive are the calls of the source. The call rests on the fitted dose curve; in most records, active means well fitted inhibition curve with a large enough effect; inconclusive means small, poorly fitted or top-dose-only effect; inactive means flat fitted curve, though single readings scatter.
Classes used: active, inactive

smilesNotation: O=S(=O)(O)c1cc(I)c(O)c2ncccc12
discreteLabel: inactive
--
smilesNotation: O=c1cc[nH]c(=S)[nH]1
discreteLabel: inactive
--
smilesNotation: CCN(CC)CCNC(=O)c1c(C)[nH]c(/C=C2\C(=O)Nc3ccc(F)cc32)c1C
discreteLabel: active
--
smilesNotation: CCCCOC(=O)c1ccc(O)cc1
discreteLabel: inactive
--
smilesNotation: COc1cc(C(=O)N2CCOCC2)cc(OC)c1OC
discreteLabel: inactive
--
smilesNotation: O=C1c2c(O)cccc2Cc2cccc(O)c21
discreteLabel: inactive
--
smilesNotation: NCCNCCNCCNCCN
discreteLabel: inactive
--
smilesNotation: COc1ccccc1O
discreteLabel: inactive
--
smilesNotation: O=S(=O)(O)NC1CCCCC1
discreteLabel: inactive
--
smilesNotation: O=Cc1ccccc1C=O
discreteLabel: inactive
--
smilesNotation: CCCCc1ncc(/C=C(\Cc2cccs2)C(=O)O)n1Cc1ccc(C(=O)O)cc1
discreteLabel: inactive
--
smilesNotation: CN(C)CCN(Cc1ccccc1)c1ccccn1
discreteLabel: inactive
--
smilesNotation: C[C@H](N)[C@H](O)c1cccc(O)c1
discreteLabel: inactive
--
smilesNotation: O=C(O)CN1C(=O)c2cccc3cccc(c23)C1=O
discreteLabel: inactive

---

runDescription: Cell Viability - Renal Proximal Tubule (AID 545);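 note: cells exposed to compound for 40 hours; nearly all actives have a fitted effect of over 40% in size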
testConditions: renal proximal tubule cells viability, primary cells of rat origin; series mostly up to 91.7 µM
Records with an inconclusive call do not appear. Active and inactive are the calls of the source. Calls come from the whole dose curve; as a rule, active = well fitted cell-killing curve with a large enough effect; inconclusive = small, poorly fitted or top-dose-only effect; inactive = flat fitted curve, though single readings scatter.
Classes used: active, inactive

smilesNotation: COC(=O)C1=C(C)NC(C)=C(C(=O)OC)C1c1ccccc1[N+](=O)[O-]
discreteLabel: active
//
smilesNotation: O=C1c2c(O)cccc2Cc2cccc(O)c21
discreteLabel: inactive
//
smilesNotation: Oc1cccc(O)c1
discreteLabel: inactive
//
smilesNotation: CC1(C)[C@@H]2CC[C@@]1(C)C(=O)C2
discreteLabel: inactive
//
smilesNotation: Cc1cc(CC(=O)O)n(C)c1C(=O)c1ccc(Cl)cc1
discreteLabel: inactive
//
smilesNotation: COc1ccccc1O
discreteLabel: inactive
//
smilesNotation: Cc1cc2nc3c(=O)[nH]c(=O)nc-3n(C[C@H](O)[C@H](O)[C@H](O)CO)c2cc1C
discreteLabel: inactive
//
smilesNotation: CC12CCC(CC1)C(C)(C)O2
discreteLabel: inactive
